These measurements were taken from patent US20260250318A1.

- Test system: brains, heart, liver, muscle, and DRG of the NHPs
- protocolNotes: Maturation of TTM-001 and TTM-002 capsids, NGS enrichment in NHP tissues
- Assay type: in vivo
- conditionNotes: NGS fold-enrichment of RNA, NHP brain, relative to AAV9 control
I'd appreciate it if you could supply Fold Enrichment relative to AAV9, Brain (NHP) values for the items below.

// for each sequence in input: emit Fold Enrichment relative to AAV9, Brain (NHP)
1. KTINGYDSPHKSGQYQHT
2. KTINGTGSPHSKAQNHQI
3. KAINGHDSPHKSGQSPQT
4. KTINGCGSPHASGQNQQT

Data returned:
["81.534 fold", "77.089 fold", "75.734 fold", "132.540 fold"]

----------
- Tested on: brains, heart, liver, muscle, and DRG of the NHPs
- protocolNotes: Maturation of TTM-001 and TTM-002 capsids, NGS enrichment in NHP tissues
- Assay type: in vivo
- conditionNotes: NGS fold-enrichment, NHP muscle, relative to AAV9 control
Task for the reader: assign each of the following sequences its reported Fold Enrichment relative to AAV9, Muscle (NHP).
Answers are plain numbers, in fold.

Some solved cases for reference:
- sequenceRecord: "KTINGGGSPHSKALNQQN"
  readoutValue: 0.000
- sequenceRecord: "KAINGHDSPHKSEKNQQT"
  readoutValue: 0.000
- sequenceRecord: "KTINGPDSPHKIGQNQQS"
  readoutValue: 0.171
- sequenceRecord: "KTSNESGSPHSKAQNHQT"
  readoutValue: 0.000
- sequenceRecord: "KAINGHDSPHKSGQSPQT"
  readoutValue: 0.000
- sequenceRecord: "KTINGHDSPHKIGLDQQT"
  readoutValue: 0.000
- sequenceRecord: "KTTNGHDSPHKSGQTQLT"
  readoutValue: 0.000
- sequenceRecord: "KAEMGSGSPHSKAQNQQT"
  readoutValue: 0.000
- sequenceRecord: "KTVNGSGSPHSKTQSQQT"
  readoutValue: 0.000
- sequenceRecord: "KTISGHDSPHKTGHNQQT"
  readoutValue: 0.057

Here are 2 sequences. What values of Fold Enrichment relative to AAV9, Muscle (NHP) were reported for them?
1. KATNGSGSPHSKAQNHQT
2. KTVNGHDSPHKSGRNQET

Data returned:
0.000
0.000

----------
Please respond with reported Fold Enrichment relative to AAV9, Brain (Mouse) for every item in the list.
- System: brain
- protocolNotes: Matured TTM-001 and TTM-002 variants, NGS enrichment in mouse brain
- Format: in vivo, mice
- conditionNotes: mouse brain; relative to AAV9 control
Give bare numbers, in fold.

- sequenceRecord: "KTVNGSGSPHSKAQHLQT"
  readoutValue: 62.743
- sequenceRecord: "KTIIKNGSPHSKAQNQQT"
  readoutValue: 75.547
- sequenceRecord: "KNNLGSGSPHSKAQNQQT"
  readoutValue: 102.408

Batch of 8 sequences: report Fold Enrichment relative to AAV9, Brain (Mouse) for each.
1. KTINGTGSPHSKAPNQLT
2. KTINGSGSPHSKNRDQQT
3. KTEHVSGSPHSKAQNQQT
4. EAINGSGSPHSKAQNQQT
5. KTWQNSGSPHSKAQNQQT
6. KTINGSGSPHSKAQKIST
7. KTINGGGSPHSKAQNQMT
8. KTINGSGSPHSKVPNLQT

Data returned:
1. 86.939
2. 100.300
3. 71.410
4. 117.305
5. 114.258
6. 51.115
7. 73.177
8. 50.474

For every record below, what is its Fold Enrichment relative to AAV9, Brain (Mouse)?
1. KTVNASGSPHSKAQNQLT
2. KTINGSGSPHSKAQPLGT

Data returned:
99.559
68.656

Give measured Fold Enrichment relative to AAV9, Brain (Mouse) for every item shown.
1. KTERVSGSPHSKAQNQQT
2. KTERGSGSPHSKAQNQQT
3. KTINKEGSPHSKAQNQQT
4. KTVNGSGSPHSKAQLQQT

Data returned:
135.438
85.368
64.520
81.201

----------
- System: brains, heart, liver, muscle, and DRG of the NHPs
- protocolNotes: Maturation of TTM-001 and TTM-002 capsids, NGS enrichment in NHP tissues
- Type: in vivo
- conditionNotes: NGS fold-enrichment, RNA, brain of NHPs, relative to AAV9 control
For each of the sequences below, state its Fold Enrichment relative to AAV9, Brain (NHP).
Answers are plain numbers, in fold.

- sequenceRecord: "KTINGGGSPHSKAQSQQI"
  unit: "fold"
  readoutValue: 74.264
- sequenceRecord: "KTINGPGSPHSKAHNQQT"
  unit: "fold"
  readoutValue: 115.742
- sequenceRecord: "KTVNGNGSPHSKAQNKQT"
  unit: "fold"
  readoutValue: 81.481
- sequenceRecord: "KTINGSGSPHSKAQGQQA"
  unit: "fold"
  readoutValue: 64.128
- sequenceRecord: "KAIKGSGSPHSKAQDQQT"
  unit: "fold"
  readoutValue: 82.258
- sequenceRecord: "KTVKDSGSPHSKAQNQQT"
  unit: "fold"
  readoutValue: 60.216
- sequenceRecord: "KNALGSGSPHSKAQNQQT"
  unit: "fold"
  readoutValue: 60.014
- sequenceRecord: "KNINGSGSPHSKAQNQQT (KNTNGSGSPHSKAQNQQT)"
  unit: "fold"
  readoutValue: 78.445
- sequenceRecord: "KTINGSGSPHSKAQAMHT"
  unit: "fold"
  readoutValue: 62.756
- sequenceRecord: "KTIQDGGSPHSKAQNQQT"
  unit: "fold"
  readoutValue: 59.865

I would be grateful if you could provide Fold Enrichment relative to AAV9, Brain (NHP) for each of the following entries.
1. KTSSGSGSPHSKAQYQQT
2. KNINGSGSPHSKAQSQQT

Data returned:
1: 87.304; 2: 73.757

I have 2 sequences here; please give me Fold Enrichment relative to AAV9, Brain (NHP) for each one.
1. KTINGSGSPHSKAQYIHT
2. KTINGGGSPHSKAQNQLI

Data returned:
1: 76.170; 2: 83.881

For each entry beneath this line, provide reported Fold Enrichment relative to AAV9, Brain (NHP).
1. KTINGGGSPHSKSQNQLT
2. KTINGSGSPHSKAQERPT

Data returned:
[82.231, 63.460]

----------
- Test system: brains, heart, liver, muscle, and DRG of the NHPs
- protocolNotes: Maturation of TTM-001 and TTM-002 capsids, NGS enrichment in NHP tissues
- Assay type: in vivo
- conditionNotes: NGS fold-enrichment of RNA, NHP brain, relative to AAV9 control
Could you label it 1.0 if measured Fold Enrichment relative to AAV9, Brain (NHP) is 80 fold or higher, and 0.0 otherwise?

Reference set, count: 5
- sequenceRecord: "KTINGHDSPHKSAQNYQT"
  class: 1.0
- sequenceRecord: "KTERASGSPHSKAQNQQT"
  class: 1.0
- sequenceRecord: "KTEMKHDSPHKSGQNQQT"
  class: 1.0
- sequenceRecord: "KAIIGHESPHKSGQNQQT"
  class: 1.0
- sequenceRecord: "KTINGSGSPHSKAQYIHT"
  class: 0.0

Data request: Does KTINGGGSPHSKAQTQQI have a reported Fold Enrichment relative to AAV9, Brain (NHP) of at least 80 fold?
Data returned: 1.0

Data request: Is the recorded value of Fold Enrichment relative to AAV9, Brain (NHP) equal to or greater than 80 fold for this sequence? KTINGNGSPHSKAQNPLT
Data returned: 0.0

----------
Can you tell me Fold enrichment over AAV9 in the spinal cord of NHPs for the items I'm about to list?
- System: brain, spinal cord, and DRG of the NHPs
- protocolNotes: NGS fold enrichment of synthetic library (passage 3) in NHPs, first cross-species screen
- Format: in vivo, cynomolgus macaques (Macaca fascicularis)
- conditionNotes: synthetic library passage 3, intravenous, RNA NGS, spinal cord of NHPs, relative to wild-type AAV9
Give bare numbers, in fold.

These solved cases illustrate the format of a correct answer.
- sequenceRecord: "GSGSPHVKIQNQQT"
  unit: "fold"
  readoutValue: 9.068
- sequenceRecord: "GSVHMQNAGQNQQT"
  unit: "fold"
  readoutValue: 3.608
- sequenceRecord: "GNYLHQASGQNQQT"
  unit: "fold"
  readoutValue: 1.454
- sequenceRecord: "GSSVSPSSGQNQQT"
  unit: "fold"
  readoutValue: 0.579
- sequenceRecord: "GSGQNQQTSVGFRT"
  unit: "fold"
  readoutValue: 3.737
- sequenceRecord: "GSGQNQQSGRGDLT"
  unit: "fold"
  readoutValue: 6.919

Record Fold enrichment over AAV9 in the spinal cord of NHPs for all entries; do not skip any.
1. GSSPAPNSGQNQQT
2. GSGNPVSHLQNQQT
3. GSGASRMSIQNQQT
4. GSTGIVSSGQNQQT

Data returned:
[2.229, 1.037, 0.111, 0.927]

The following sequences each have a reported value; give each one's Fold enrichment over AAV9 in the spinal cord of NHPs.
1. GSGQTQVLKSNQQT
2. GSGQNQQLPHSNLT
3. GRHLVTASGQNQQT
4. GSGSPRDSIQNQQT
5. GSGSVSQLGQNQQT
6. GSGQNQQTHPSPCT

Data returned:
[3.031, 1.838, 2.885, 4.914, 2.307, 1.003]

I have 7 sequences here; please give me Fold enrichment over AAV9 in the spinal cord of NHPs for each one.
1. GSGYASHVQQNQQT
2. GSGQSHRSELNQQT
3. GSGQNQQVAIRTST
4. GSGHLFQSGQNQQT
5. GSGSPHVRMQNQQT
6. GSGGVTYQSQNQQT
7. GSGQNQQTHGGLRD

Data returned:
3.038
11.974
2.447
0.615
6.764
7.283
6.487
